- test protocol: Acumen qHTS Assay for Inhibitors of the mTORC1 Signaling Pathway in WT MEF Cells: Hit Validation; further: nearly all actives have a fitted effect of over 60% in size
- protocol conditions: Acumen imaging; series mostly up to 37.3 µM
Results filed as inconclusive are left out. Calls of active or inactive are those of the source. The call rests on the fitted dose curve; in most records, active means well fitted inhibition curve with a large enough effect; inconclusive means small, poorly fitted or top-dose-only effect; inactive means no such curve, though single readings can be large or run the other way.
Entry note: the call must match one of active, inactive

compound: O=C(NCc1ccc(Cl)cc1)C(=O)NCC(c1cccs1)S(=O)(=O)c1ccc(Cl)cc1 (configuration not stated)
assigned label: inactive

Check the results log: what was the call for Cc1ccccc1C(=O)N1CCN(CCc2ccccn2)CC1 ?
inactive

Check the results log: what was the call for Cc1nc2ccc(S(=O)(=O)CCC(=O)Nc3ccc(Cl)cc3)cc2s1 ?
inactive

Check the results log: what was the call for COc1ccc(-c2nc(CCNC(=O)c3c(F)cccc3Cl)cs2)cc1 ?
inactive

Check the results log: what was the call for CCCCN1C(=O)C(O)(c2c(C)[nH]c3ccccc23)c2cc(Br)ccc21 (configuration not stated) ?
inactive

Check the results log: what was the call for COc1cc(Cl)c(C)cc1NC(=O)C1CCN(c2nc3ccccc3n3cccc23)CC1 ?
inactive

Check the results log: what was the call for Cc1cccn2c(Nc3ccccc3)c(-c3cccs3)nc12 ?
inactive

Check the results log: what was the call for CC[C@H](CO)Nc1nc(NCc2ccccc2)c2ncn(C(C)C)c2n1 ?
inactive

Check the results log: what was the call for CC(C)c1nnc(NC(=O)c2nc(S(=O)(=O)Cc3ccccc3)ncc2Cl)s1 ?
active

Check the results log: what was the call for CCOc1ccc(CC(=O)NC2CC(=O)N(c3ccc4c(c3)OCCO4)C2)cc1 (configuration not stated) ?
inactive

Check the results log: what was the call for CCN(C(=O)C(NS(=O)(=O)c1ccc(Br)s1)c1ccccc1)c1ccc(C)c(C)c1 (configuration not stated) ?
inactive

====

- test protocol: Acumen qHTS Assay for Inhibitors of the mTORC1 Signaling Pathway in WT MEF Cells: Hit Validation; further: nearly all actives have a fitted effect of over 60% in size; further: potency means the concentration at half of the fitted maximal effect
- protocol conditions: Acumen imaging; series mostly up to 37.3 µM
Inconclusive results are not listed. Calls of active or inactive are those of the source. Calls come from the whole dose curve; as a rule, active = well fitted inhibition curve with a large enough effect; inconclusive = small, poorly fitted or top-dose-only effect; inactive = no such curve, though single readings can be large or run the other way.
measure name: Potency

compound: CCc1nn(CC(=O)NCc2ccccc2Cl)c(=O)c2cccn12
Potency: inactive
//
compound: CCOC(=O)c1ccc(N2C(=O)c3n[nH]c(C)c3C2c2cccc(Br)c2)cc1 (stereo unspecified)
Potency: inactive
//
compound: Cn1nc(-c2ccc(OCC(=O)Nc3ccccc3)cc2)c2ccccc2c1=O
Potency: inactive
//
compound: COc1ccc(OCC(O)Cn2c(=N)n(CCN3CCCCC3)c3ccccc32)cc1 (stereo unspecified)
Potency: inactive
//
compound: Cc1ccc(Nc2nnc(-c3ccc(C)c(S(=O)(=O)N4CCOCC4)c3)c3ccccc23)c(C)c1
Potency: inactive

Can you give me Potency for all of these, one by one?
1. Cc1ccc(C)c(S(=O)(=O)NCC(c2ccco2)S(=O)(=O)c2ccc(F)cc2)c1 (stereo unspecified)
2. Cc1ccc(NC(=O)CCNS(=O)(=O)c2cccc3nonc23)cc1Cl
3. CC1=Nc2cc(C(=O)NC3CCCC3)ccc2Sc2ccc(Cl)cc21
4. Cc1cccc(CS(=O)(=O)c2ncc(Cl)c(C(=O)Nc3nnc(C(C)C)s3)n2)c1

1. inactive
2. inactive
3. 0.826 µM (active)
4. 14.7 µM (active)

====

- test protocol: Acumen qHTS Assay for Inhibitors of the mTORC1 Signaling Pathway in WT MEF Cells: Hit Validation; further: nearly all actives have a fitted effect of over 60% in size
- protocol conditions: Acumen imaging; series mostly up to 37.3 µM
Records with an inconclusive call do not appear. Calls of active or inactive are those of the source. Calls come from the whole dose curve; as a rule, active = well fitted inhibition curve with a large enough effect; inconclusive = small, poorly fitted or top-dose-only effect; inactive = no such curve, though single readings can be large or run the other way.
Entry note: the call must match one of 1 (yes) = active, 0 (no) = inactive

Previously resolved entries follow.
molecule: Cc1cccc(-c2nc3c(cnn3-c3ccccc3)c(=O)n2-c2ccc(Br)cc2)c1
assigned label: 0 (no)
//
molecule: CCN(c1ccccc1)S(=O)(=O)c1ccc(NC(=O)c2nc(S(C)(=O)=O)ncc2Cl)cc1
assigned label: 1 (yes)
//
molecule: CCCCS(=O)(=O)c1nc(-c2ccc(Br)cc2)cc(-c2ccccc2)c1C#N
assigned label: 1 (yes)
//
molecule: CCOC(=O)c1c(NC(=O)COc2ccc(OC)cc2)sc(C(=O)N(CC)CC)c1C
assigned label: 0 (no)
//
molecule: O=C(NCC1CCN(Cc2cccc(Cl)c2)CC1)Nc1ccc(F)c(Cl)c1
assigned label: 0 (no)
//
molecule: COc1cc(Br)ccc1C1C(C(=O)Nc2ccc(C)cc2C)=C(C)Nc2nnnn21 (stereo not given)
assigned label: 0 (no)
//
molecule: CC1CCCCN1c1nnc(NC(=O)Nc2ccccc2F)s1 (stereo not given)
assigned label: 0 (no)
//
molecule: O=C(NCCN1CCN(c2cccc(Cl)c2)CC1)Nc1ccccc1C(F)(F)F
assigned label: 0 (no)
//
molecule: O=C(C1CCN(c2nc3ccccc3[nH]2)CC1)N1CCN(c2cccc(Cl)c2)CC1
assigned label: 0 (no)

Check the results log: what was the call for CCCCS(=O)(=O)c1oc(-c2cccs2)nc1S(=O)(=O)c1ccccc1 ?
1 (yes)
